Attribution: PubChem BioAssay (NCI)

- System: HS 578T breast
- assay protocol: NCI tumour cell line growth inhibition, 48 h; in the data active = GI50 below about 0.43 µM; inactive = the rest
Just give me one of these, please: active, inactive

Reference set (10 entries):
Cc1cc(-c2ncc(-c3cccnc3)cc2/C=C/c2ccccc2)cnc1-c1cccnc1 | inactive
O=S1CCN(Cc2ccc(-c3ccc4ncnc(Nc5ccc(OCc6cccc(F)c6)c(Cl)c5)c4c3)o2)CC1 | inactive
Cc1cccc2c(C(=O)O[C@H](C(N)=O)[C@]3(C)CO3)cccc12 | inactive
FC(F)(F)c1ccc(-c2cnc(Cl)nc2NC2CCCCCC2)cc1 | inactive
O=C1/C(=C/c2ccc(Cl)cc2)COc2ccc(O)cc21 | inactive
Clc1ccc(CCC(Cn2ccnc2)Sc2c(Cl)cccc2Cl)cc1 (configuration not stated) | inactive
CCN(Cc1ccncc1)c1ccc(CO)c(Cl)c1 | inactive
NS(=O)(=O)N(c1cc(C(F)(F)F)cc(C(F)(F)F)c1)C1CCN(Cc2ccc(F)cc2)CC1 | inactive
CS(=O)(=O)Nc1cc(-c2ccc3ncnc(Nc4ccc5c(cnn5Cc5cccc(F)c5)c4)c3c2)cnc1Cl | active
O=S1CCN(Cc2ccc(-c3ccc4ncnc(Nc5ccc(OCc6ccccc6)c(Cl)c5)c4c3)o2)CC1 | inactive

Entry COc1ccc(/C=C/c2nnc(/C=C/c3ccc(OC)c(OC)c3)o2)cc1OC : call = ?
inactive

Request: COc1cc(/C=N/Nc2ncnc3[nH]ncc23)ccc1O
inactive

Request: CCN1CCC(Oc2c(C#N)ncc3[nH]c4ncccc4c23)CC1
inactive

Request: CC(C)(C)c1ccc(C(=O)Nc2sc3c(c2C#N)CCC(=O)C3)cc1
active
